All values here come from a melting point compilation (Tetko et al.; mined from patent text by program, amines drawn as free bases though some values may be those of a salt).

quantityKind: melting point

These solved cases illustrate the format of a correct answer.
Cc1cccc(NC(=O)CN2C(=O)c3ccccc3C2=O)c1    207 °C
O=[N+]([O-])CS(=O)(=O)c1ccc(Oc2ccccc2)cc1    118 to 120 °C
CC(C)(C)c1cc(C=Cc2ccccc2NC(=O)NC2CCCCCC2)cc(C(C)(C)C)c1O    203 to 206 °C
Cc1ccc([N+](=O)[O-])cc1S(=O)(=O)n1c(Br)nc(Br)c1C    187 to 189 °C
Cc1ccc(I(Cl)Cl)c([N+](=O)[O-])c1    50 to 52 °C

Find the recorded melting point belonging to O=C(NC1CCC(CCN2CCN(c3nccc4c3CCO4)CC2)CC1)c1ccc(N2CCS(=O)(=O)CC2)cc1 (configuration not stated) and report it.
262 °C

====

quantityKind: melting point

These solved cases illustrate the format of a correct answer.
Nc1ccc(Sc2c(O)c3c(=O)n(-c4ccccc4)c4ccccc4c3oc2=O)cc1    > 300 °C
Brc1ccc2c(c1)Cc1cc(I)ccc1-2    179 to 185 °C
COC(=O)[C@H](Cc1ccccc1)NC(=O)[C@H](Cc1ccccc1)NC(=O)c1cnccn1    111 to 113 °C
O=C1c2ccccc2C(=O)N1C[C@H]1COc2cc(Cl)ccc2O1    126 to 127 °C
CN(C)c1cccc(OC(=O)NC2C(=O)N(CCC3C4CC5CC(C4)CC3C5)c3ccccc3N(c3ccccc3)C2=O)c1 (configuration not stated)    188 to 189 °C

Find the recorded melting point belonging to CCCC(=O)Nc1ccc(CCn2c(=O)n(CCC)c(=O)c3[nH]c(C4CCCC4)nc32)cc1 and report it.
> 270 °C

Find the recorded melting point belonging to CCCc1nc(NC(C)=O)nc(N2CCOCC2)n1 and report it.
141 to 142 °C

Find the recorded melting point belonging to CN(C)CCN(Cc1ccccc1)C1=NC(=O)C(=Cc2cccc(-c3cc(F)c(O)c(C45CC6CC(CC(C6)C4)C5)c3)c2)S1 and report it.
242 to 246 °C

====

Listed below: melting point values for each entry.

These solved cases illustrate the format of a correct answer.
CSc1ccc(C(=O)NN=C2C(=O)Nc3ccc(I)cc32)cc1    298 °C
O=[N+]([O-])c1ccc(C=Cc2ccc(Cl)c(Cl)c2)cc1    190 to 191 °C
CCCCCCC(C(=O)OCC)n1cnc2c([N+](=O)[O-])cccc21 (stereo not given)    86 to 89 °C
O=C1NC(=O)c2c1c(-c1ccccc1Cl)cc1c2c2cc(O)ccc2n1CCCSc1ccccc1    229 to 231 °C
CN(C)c1nc2cc(NC(=O)c3c(C(=O)O)cnn3C)ccn2n1    > 250 °C

Find the recorded melting point belonging to CCCn1cc(Cc2ccc(C(=O)O)cc2OC)c2cc(CC(C)C(=O)N3CCCC3)ccc21 (stereo not given) and report it.
92 to 100 °C

Find the recorded melting point belonging to C=C(C)C(=O)OCCN(C(=O)c1ccc(C(=O)O)cc1C(=O)O)C(C)(C)C and report it.
74 °C

Find the recorded melting point belonging to CC(=S)NC(C(=O)NCc1ccccc1)c1ccco1 (stereo not given) and report it.
78 to 80 °C

Find the recorded melting point belonging to O=C(O)c1ccc(-c2cc(-c3ccc(Cl)cc3)on2)cc1 and report it.
> 300 °C

Find the recorded melting point belonging to O=C(Nc1ccc(C(=O)N2Cc3cccn3Cc3ccccc32)cc1)c1ccccc1Cl and report it.
228 to 230 °C
